Parameter: Tm. Scope: all listed entries.
test: melting temperature; fluorescence melt of hairpins on a sequencing array, two-state fit, raised by 9.35 °C to match UV melts; settings: sodium 0.088 M
ASSAY METRIC: Tm (°C)

>>> reported_value("GCGTGCTACGC ((((...))))")
62
>>> reported_value("GATCCAGGACTGGATC ((((((....))))))")
56.2
>>> reported_value("GTCCGTGCGAAAGCAGAC (((..(((....))))))")
32.4
>>> reported_value("GATCAGGGCCCTGATC ((((((....))))))")
60.3
>>> reported_value("GGGGACGAAAGTCGACCC ((((((....)))..)))")
48.9
>>> reported_value("GATCCACGCCTGGATC ((((((....))))))")
52.3
>>> reported_value("GCCAATGGAAACGTTGGC (((((.(....).)))))")
53.7
>>> reported_value("GATCGCCGGTGCGATC ((((((....))))))")
66
>>> reported_value("GATCTTTGGAAAGATC ((((((....))))))")
42.7
>>> reported_value("GGATAGCGAAAGCTTTCC (((.(((....))).)))")
49.3
>>> reported_value("GTGCTGGGAAACCAGCGC (.(((((....))))).)")
61.6
>>> reported_value("GCGCACGAAAGTGTTCGC ((((((....)))..)))")
48.2

====

assay: folding enthalpy; higher = less favourable; fluorescence melt of hairpins on a sequencing array, two-state fit; settings: sodium 0.088 M
ASSAY METRIC: folding enthalpy (kcal/mol)

>>> reported_value("GGGACTCGAAAGAGACCC (((.(((....))).)))")
-39.2
>>> reported_value("GCCGACCGAAAGGTAGGC (((.(((....))).)))")
-37.5
>>> reported_value("GATCTCCGAAGAGATC ((((((....))))))")
-40.6
>>> reported_value("GCCTGCGAAAGCACTGGC ((((((....)))..)))")
-20
>>> reported_value("CGTTGGAAACAACG (((((....)))))")
-30.3
>>> reported_value("GAGACGACGAAAGTCCTC (((..(((....))))))")
-16.7
>>> reported_value("CGAGCGGAAACGCGGTCG ((((((....)))..)))")
-14.9
>>> reported_value("GCTTGACGAAAGTCCAGC (((.(((....))).)))")
-26.6
>>> reported_value("GACTGTACGAAAGTAGTC (((..(((....))))))")
-28.8
>>> reported_value("GAAATCGAAAGATTTC ((((((....))))))")
-32.5
>>> reported_value("GAAATCGGAAACGATTCC (.(((((....))))).)")
-16.6
>>> reported_value("GATCAACGCATTGATC ((((((....))))))")
-34.6

====

test: folding enthalpy; higher = less favourable; fluorescence melt of hairpins on a sequencing array, two-state fit; details: sodium 0.088 M
Param threshold (-30 kcal/mol) applies to folding enthalpy; output satisfied when value >= threshold, not satisfied when value < threshold.

>>> assigned_category("GGTAGGAAACTACC (((((....)))))")
"satisfied"
>>> assigned_category("GTGCTCGGAAACGAACAC (((.(((....))).)))")
"not satisfied"
>>> assigned_category("GGCAATCCGAAAGGAGCC (((..(((....))))))")
"satisfied"
>>> assigned_category("GCGATCGAAAGATTGCGC ((((((....)))..)))")
"not satisfied"
>>> assigned_category("GTACCCGAAAGGGATTAC ((((((....)))..)))")
"satisfied"
>>> assigned_category("GATAGGCGAAAGCCCATC (((.(((....))).)))")
"satisfied"
>>> assigned_category("CGCGGAAGAGTCCGCG ((((((....))))))")
"not satisfied"
>>> assigned_category("GAAGAGAAATCTTC (((((....)))))")
"satisfied"
>>> assigned_category("GGGTAGGGAAACTTGCCC (((.(.(....).).)))")
"satisfied"
>>> assigned_category("GGGGTCGAAAGACCTCCC ((((((....)))..)))")
"satisfied"
>>> assigned_category("GCTCAACGAAAGTTCAGC (((.(((....))).)))")
"satisfied"
>>> assigned_category("GTAGTTGGAAACGATTAC (((.(.(....).).)))")
"satisfied"
>>> assigned_category("GGGCGTCGAAAGACCCCC (((.(((....))).)))")
"satisfied"
>>> assigned_category("GATCAGGGGGCTGATC ((((((....))))))")
"not satisfied"
>>> assigned_category("GATCGTATCCACGATC ((((((....))))))")
"not satisfied"
>>> assigned_category("GTGTATGGAAACATACAC (((((((....)))))))")
"not satisfied"
>>> assigned_category("GTCATCGAAAGATGCGAC ((((((....)))..)))")
"satisfied"
>>> assigned_category("GATCCATTGATGGATC ((((((....))))))")
"not satisfied"
>>> assigned_category("GAACGCGAAAGCGAGTTC ((((((....)))..)))")
"satisfied"
>>> assigned_category("CGGGCGGAAACGCCCCG ((((((....))).)))")
"satisfied"
>>> assigned_category("CGTTGCGGAAACGCACG (((.(((....))))))")
"satisfied"
